test system: NCI-H23; experiment: relative viability (nuclei count vs DMSO), 5 days (fraction); higher = more cells survive; conditions: first compound 0.005 µM
assay_endpoint: relative viability

Nc1ccn([C@@H]2O[C@H](CO)[C@@H](O)[C@@H]2O)c(=O)n1 [Cytarabine] + Nc1nc2[nH]cc(CCc3ccc(C(=O)N[C@@H](CCC(=O)O)C(=O)O)cc3)c2c(=O)[nH]1 [Pemetrexed] (partner 0.2 µM)	0.611
COc1cc2nccc(Oc3ccc(NC(=O)Nc4cc(C)on4)c(Cl)c3)c2cc1OC [Tivozanib] + Nc1nc2[nH]cc(CCc3ccc(C(=O)N[C@@H](CCC(=O)O)C(=O)O)cc3)c2c(=O)[nH]1 [Pemetrexed] (partner 0.2 µM)	0.588
COc1cc2nccc(Oc3ccc(NC(=O)Nc4cc(C)on4)c(Cl)c3)c2cc1OC [Tivozanib] + Cc1nc(NC(=O)N2CCC[C@H]2C(N)=O)sc1-c1ccnc(C(C)(C)C(F)(F)F)c1 [Alpelisib] (partner 2 µM)	0.735
COc1cc2nccc(Oc3ccc(NC(=O)Nc4cc(C)on4)c(Cl)c3)c2cc1OC [Tivozanib] + CS(=O)(=O)CCNCc1ccc(-c2ccc3ncnc(Nc4ccc(OCc5cccc(F)c5)c(Cl)c4)c3c2)o1 [Lapatinib] (partner 2 µM)	1.1

====

tested on: UMC-11; assay: relative viability (nuclei count vs DMSO), 5 days (fraction); higher = more cells survive; settings: first compound 0.1581 µM
Listing of entries alongside the reported relative viability.
assay_endpoint: relative viability

COc1cc2nccc(Oc3ccc(NC(=O)Nc4cc(C)on4)c(Cl)c3)c2cc1OC [Tivozanib] + CC(=O)c1c(C)c2cnc(Nc3ccc(N4CCNCC4)cn3)nc2n(C2CCCC2)c1=O [Palbociclib] (partner 0.5 µM)	0.304
Nc1ccn([C@@H]2O[C@H](CO)[C@@H](O)[C@@H]2O)c(=O)n1 [Cytarabine] + Cc1nc(NC(=O)N2CCC[C@H]2C(N)=O)sc1-c1ccnc(C(C)(C)C(F)(F)F)c1 [Alpelisib] (partner 2 µM)	0.192
Nc1ccn([C@@H]2O[C@H](CO)[C@@H](O)[C@@H]2O)c(=O)n1 [Cytarabine] + C[C@]1(O)C[C@@H](c2nc(-c3ccc4ccc(-c5ccccc5)nc4c3)c3c(N)nccn32)C1 [Linsitinib] (partner 1 µM)	0.246
Nc1ccn([C@@H]2O[C@H](CO)[C@@H](O)[C@@H]2O)c(=O)n1 [Cytarabine] + N=C(N)NC(=N)NCCc1ccccc1 [Phenformin] (partner 250 µM)	0.195
Nc1ccn([C@@H]2O[C@H](CO)[C@@H](O)[C@@H]2O)c(=O)n1 [Cytarabine] + Nc1ncn([C@H]2C[C@H](O)[C@@H](CO)O2)c(=O)n1 [Decitabine] (partner 2 µM)	0.32

====

test system: NCI-H2405; assay: relative viability (nuclei count vs DMSO), 5 days (fraction); higher = more cells survive; settings: first compound 0.0002 µM
Mark fulfilled only when relative viability stays strictly below 0.7. Values equal to the cut-off are not fulfilled.

CC(=O)O[C@@]12CO[C@@H]1C[C@H](O)[C@@]1(C)C(=O)[C@H](O)C3=C(C)[C@@H](OC(=O)[C@H](O)[C@@H](NC(=O)OC(C)(C)C)c4ccccc4)C[C@@](O)([C@@H](OC(=O)c4ccccc4)[C@H]21)C3(C)C [Docetaxel] + C[C@]1(O)C[C@@H](c2nc(-c3ccc4ccc(-c5ccccc5)nc4c3)c3c(N)nccn32)C1 [Linsitinib] (partner 1 µM)	not fulfilled
CC(=O)O[C@@]12CO[C@@H]1C[C@H](O)[C@@]1(C)C(=O)[C@H](O)C3=C(C)[C@@H](OC(=O)[C@H](O)[C@@H](NC(=O)OC(C)(C)C)c4ccccc4)C[C@@](O)([C@@H](OC(=O)c4ccccc4)[C@H]21)C3(C)C [Docetaxel] + CS(=O)(=O)N1CCN(Cc2cc3nc(-c4cccc5[nH]ncc45)nc(N4CCOCC4)c3s2)CC1 [Pictilisib] (partner 1 µM)	fulfilled
CC(=O)O[C@@]12CO[C@@H]1C[C@H](O)[C@@]1(C)C(=O)[C@H](O)C3=C(C)[C@@H](OC(=O)[C@H](O)[C@@H](NC(=O)OC(C)(C)C)c4ccccc4)C[C@@](O)([C@@H](OC(=O)c4ccccc4)[C@H]21)C3(C)C [Docetaxel] + CC(C)C[C@H](NC(=O)[C@H](Cc1ccccc1)NC(=O)c1cnccn1)B(O)O [Bortezomib] (partner 0.002 µM)	not fulfilled
CC(=O)O[C@@]12CO[C@@H]1C[C@H](O)[C@@]1(C)C(=O)[C@H](O)C3=C(C)[C@@H](OC(=O)[C@H](O)[C@@H](NC(=O)OC(C)(C)C)c4ccccc4)C[C@@](O)([C@@H](OC(=O)c4ccccc4)[C@H]21)C3(C)C [Docetaxel] + NC(=O)Nc1cc(-c2cccc(F)c2)sc1C(=O)N[C@H]1CCCNC1 [AZD7762] (partner 0.2 µM)	not fulfilled
CC(=O)O[C@@]12CO[C@@H]1C[C@H](O)[C@@]1(C)C(=O)[C@H](O)C3=C(C)[C@@H](OC(=O)[C@H](O)[C@@H](NC(=O)OC(C)(C)C)c4ccccc4)C[C@@](O)([C@@H](OC(=O)c4ccccc4)[C@H]21)C3(C)C [Docetaxel] + CC(=O)Nc1cccc(-n2c(=O)n(C3CC3)c(=O)c3c(Nc4ccc(I)cc4F)n(C)c(=O)c(C)c32)c1 [Trametinib] (partner 0.02 µM)	fulfilled
CC(=O)O[C@@]12CO[C@@H]1C[C@H](O)[C@@]1(C)C(=O)[C@H](O)C3=C(C)[C@@H](OC(=O)[C@H](O)[C@@H](NC(=O)OC(C)(C)C)c4ccccc4)C[C@@](O)([C@@H](OC(=O)c4ccccc4)[C@H]21)C3(C)C [Docetaxel] + Cc1nc(Nc2ncc(C(=O)Nc3c(C)cccc3Cl)s2)cc(N2CCN(CCO)CC2)n1 [Dasatinib] (partner 0.075 µM)	fulfilled

====

test system: NCI-H661; assay: relative viability (nuclei count vs DMSO), 5 days (fraction); higher = more cells survive; conditions: first compound 0.253 µM
Labelling: relative viability reported below 0.7 becomes 1.0; at or above becomes 0.0.

Cc1cnc(-c2cnc(NCCNc3ccc(C#N)cn3)nc2-c2ccc(Cl)cc2Cl)[nH]1 + N=C(N)NC(=N)NCCc1ccccc1 [Phenformin] (partner 250 µM)	1.0
Cc1cnc(-c2cnc(NCCNc3ccc(C#N)cn3)nc2-c2ccc(Cl)cc2Cl)[nH]1 + CC(=O)Nc1cccc(-n2c(=O)n(C3CC3)c(=O)c3c(Nc4ccc(I)cc4F)n(C)c(=O)c(C)c32)c1 [Trametinib] (partner 0.02 µM)	1.0
O=c1[nH]c2ccccc2n1C1CCN(CCCC(c2ccc(F)cc2)c2ccc(F)cc2)CC1 [Pimozide] + CCNC(=O)c1noc(-c2cc(C(C)C)c(O)cc2O)c1-c1ccc(CN2CCOCC2)cc1 [Luminespib] (partner 0.01 µM)	0.0
Cc1cnc(-c2cnc(NCCNc3ccc(C#N)cn3)nc2-c2ccc(Cl)cc2Cl)[nH]1 + COc1cc2c(Oc3ccc(NC(=O)C4(C(=O)Nc5ccc(F)cc5)CC4)cc3F)ccnc2cc1OCCCN1CCOCC1 [Foretinib] (partner 0.25 µM)	0.0

====

system: NCI-H1355; test: relative viability (nuclei count vs DMSO), 5 days (fraction); higher = more cells survive; settings: first compound 0.002 µM
# relative viability values compiled below
assay_endpoint: relative viability

CC(=O)O[C@@]12CO[C@@H]1C[C@H](O)[C@@]1(C)C(=O)[C@H](O)C3=C(C)[C@@H](OC(=O)[C@H](O)[C@@H](NC(=O)OC(C)(C)C)c4ccccc4)C[C@@](O)([C@@H](OC(=O)c4ccccc4)[C@H]21)C3(C)C [Docetaxel] + CCNC(=O)c1noc(-c2cc(C(C)C)c(O)cc2O)c1-c1ccc(CN2CCOCC2)cc1 [Luminespib] (partner 0.01 µM)	0.599
CC(=O)O[C@@]12CO[C@@H]1C[C@H](O)[C@@]1(C)C(=O)[C@H](O)C3=C(C)[C@@H](OC(=O)[C@H](O)[C@@H](NC(=O)OC(C)(C)C)c4ccccc4)C[C@@](O)([C@@H](OC(=O)c4ccccc4)[C@H]21)C3(C)C [Docetaxel] + CC(=O)Nc1cccc(-n2c(=O)n(C3CC3)c(=O)c3c(Nc4ccc(I)cc4F)n(C)c(=O)c(C)c32)c1 [Trametinib] (partner 0.02 µM)	0.262
CC(=O)O[C@@]12CO[C@@H]1C[C@H](O)[C@@]1(C)C(=O)[C@H](O)C3=C(C)[C@@H](OC(=O)[C@H](O)[C@@H](NC(=O)OC(C)(C)C)c4ccccc4)C[C@@](O)([C@@H](OC(=O)c4ccccc4)[C@H]21)C3(C)C [Docetaxel] + C[C@]1(O)C[C@@H](c2nc(-c3ccc4ccc(-c5ccccc5)nc4c3)c3c(N)nccn32)C1 [Linsitinib] (partner 1 µM)	0.467

====

Known relative viability of a selection of compounds
tested on: NCI-H1299; test: relative viability (nuclei count vs DMSO), 5 days (fraction); higher = more cells survive; conditions: first compound 2.53 µM
assay_endpoint: relative viability

Cc1cnc(-c2cnc(NCCNc3ccc(C#N)cn3)nc2-c2ccc(Cl)cc2Cl)[nH]1 + O=C(c1cc(Cc2n[nH]c(=O)c3ccccc23)ccc1F)N1CCN(C(=O)C2CC2)CC1 [Olaparib] (partner 8 µM)	0.856
O=c1[nH]c2ccccc2n1C1CCN(CCCC(c2ccc(F)cc2)c2ccc(F)cc2)CC1 [Pimozide] + CS(=O)(=O)N1CCN(Cc2cc3nc(-c4cccc5[nH]ncc45)nc(N4CCOCC4)c3s2)CC1 [Pictilisib] (partner 1 µM)	0.745
O=c1[nH]c2ccccc2n1C1CCN(CCCC(c2ccc(F)cc2)c2ccc(F)cc2)CC1 [Pimozide] + CC1(C)CCC(c2ccc(Cl)cc2)=C(CN2CCN(c3ccc(C(=O)NS(=O)(=O)c4ccc(N[C@H](CCN5CCOCC5)CSc5ccccc5)c(S(=O)(=O)C(F)(F)F)c4)cc3)CC2)C1 [Navitoclax] (partner 0.5 µM)	1.03
O=c1[nH]c2ccccc2n1C1CCN(CCCC(c2ccc(F)cc2)c2ccc(F)cc2)CC1 [Pimozide] + CS(=O)(=O)CCNCc1ccc(-c2ccc3ncnc(Nc4ccc(OCc5cccc(F)c5)c(Cl)c4)c3c2)o1 [Lapatinib] (partner 2 µM)	0.937
